Source listed as ChEMBL document CHEMBL4385606.

- System: Cyclin-dependent kinase 2/cyclin E1 (Homo sapiens)
- Procedure Text: Inhibition of His-tagged CDK2/Cyclin-E1 (unknown origin) expressed in baculovirus infected Sf9 insect cells using histone H1 as substrate measured in presence of [gamma-33P]ATP
pIC50: −log10 of the molar value.
Experimental Endpoint: pIC50

Check out these entries, answers already filled in.
{"columns": ["Molecule", "pIC50"],
 "data": [
  ["CC(O)CSc1nc(NCc2ccc(-c3ccccn3)cc2)c2[nH]nc(C(C)C)c2n1 (stereo unspecified)", 7.92],
  ["CC(C)c1n[nH]c2c(NCc3ccc(-c4ccccn4)cc3)nc(SCCNC(=N)N)nc12", 7.52],
  ["CC(C)c1n[nH]c2c(NCc3ccc(-c4ccccn4)cc3)nc(SC3CCCCC3O)nc12 (stereo unspecified)", 6.87],
  ["CC(C)c1n[nH]c2c(NCc3ccc(-c4ccccn4)cc3)nc(SCC(C)(C)N)nc12", 7.70]
]}

[I] CC(C)c1n[nH]c2c(NCc3ccc(-c4ccccn4)cc3)nc(SCC(N)CN)nc12 (stereo unspecified)
[II] CC(C)c1n[nH]c2c(NCc3ccc(-c4ccccn4)cc3)nc(SC3CCCC3O)nc12 (stereo unspecified)
In: Exercise: compare I and II ; which one has the greater pIC50? Select an item and report its label.
Out: I
(I: 7.92, II: 7.28)
